Where do the numbers come from? From patent US12534493B2.

- System: single-stranded DNA: 5′-d(ACGAGAACATCC)-3′ (SEQ ID NO: 12)
- assayName: Melting temperature (Tm) measurement, double strand-forming ability, with single-stranded DNA
- Format: binding
- setupConditions: duplex with single-stranded DNA SEQ ID NO: 12; 10 mM phosphate buffer (pH7.0), 200 mM NaCl, 2.5 μM each oligonucleotide
Give measured Tm for each item. Keep answers brief.
Report the value in °C with no unit label.

Write down Tm measured for item 5′-GGAZGZTCTCGT-3′: modified oligonucleotide with two separated Z modifications (DNA GGATGTTCTCGT; two Z modified nucleotides; misc_difference (4)..(4) ENA; misc_difference (6)..(6) ENA) 57

Indicate its recorded Tm; the substance in question is 5′-GGATGXXCTCGT-3′: modified oligonucleotide with two consecutive X modifications (DNA GGATGTTCTCGT; DNA oligonucleotide with modified nucleotide X, X not given here, further chemistry not given here) 58

Hello, please tell me recorded Tm for this one: 5′-GGATGYYCTCGT-3′: modified oligonucleotide with two consecutive Y modifications (DNA GGATGTTCTCGT; two Y modified nucleotides; misc_difference (6)..(6) LNA; misc_difference (7)..(7) LNA) 57

Determine from records and report Tm for 5′-GGATGXTCTCGT-3′: modified oligonucleotide with one X modification; X not defined in the visible text (DNA GGATGTTCTCGT; DNA oligonucleotide with modified nucleotide X, X not given here, further chemistry not given here) 53

// fetch Tm given entry 5′-GGATGZTCTCGT-3′: modified oligonucleotide with one Z modification; Z not defined in the visible text (DNA GGATGTTCTCGT; Z modified nucleotide; misc_difference (6)..(6) ENA) 52

Annotate the substance 5′-GGATGZZCTCGT-3′: modified oligonucleotide with two consecutive Z modifications (DNA GGATGTTCTCGT; two Z modified nucleotides; misc_difference (6)..(6) ENA; misc_difference (7)..(7) ENA) with its measured Tm. 57

Look up and report measured Tm for this entry: 5′-GGAYGYTCTCGT-3′: modified oligonucleotide with two separated Y modifications (DNA GGATGTTCTCGT; two Y modified nucleotides; misc_difference (4)..(4) LNA; misc_difference (6)..(6) LNA) 58
